This collection of values is drawn from the supplement of paper PMC5844555.

System: MYCN
procedureDetails: 3' UTR reporter interaction score (median-centred robust z-score of log2 firefly/Renilla activity); higher = less repression of the 3' UTR reporter
assaySetup: HEK293T; 48 h
Note to self: values exactly at 0.2 are Met. So 3' UTR reporter interaction score at or above 0.2 is Met, below is Not met.

biosequence	labelClass
GACCUGGACAUGUUUGUGCCCAGU	Met
CAUGCCUUGAGUGUAGGACCGU	Not met
AAGUGCUGUCAUAGCUGAGGUC	Met
UGAGCUGCUGUACCAAAAU	Not met
UGUAAACAUCCUACACUCAGCU	Not met
ACAGCAGGCACAGACAGGCAG	Not met
CAAGUCACUAGUGGUUCCGUUUA	Not met
UCUACAGUGCACGUGUCU	Met
AAUCCUUUGUCCCUGGGUGAGA	Met
UACGUCAUCGUUGUCAUCGUCA	Not met
AUUGACACUUCUGUGAGUAG	Not met
CACGCUCAUGCACACACCCAC	Not met
UGUGCAAAUCUAUGCAAAACUGA	Not met
CAGUGCAAUAGUAUUGUCAAAGC	Met
CAGCAGCAAUUCAUGUUUUGAA	Not met
GAGUGCCUUCUUUUGGAGCGU	Met
